# Test system: 695427-040-R-J1-PDC complex spheroid viability;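 also: viability read after seven days of drug exposure; 100% = DMSO vehicle control viability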
# Assay remarks: Anticancer human tumor 695427-040-R-J1-PDC patient-derived colon adenocarcinoma cell line growth inhibition [RAS]
# Recorded conditions: second compound 0.0949 µM; first compound 0.1 µM; hits give low values
Value kind: viability, T/C (%)
# output: bare number, implied unit %

**Q:** Tell me its viability, T/C given NC1c2ccccc2OC12CCN(c1cnc3c(N4CCCc5ncccc54)n[nH]c3n1)CC2 (centres undefined) + CCn1c(-c2cc(N3CCN(C)CC3)cnc2C(C)OC)c2c3cc(ccc31)-c1csc(n1)CC(NC(=O)C1CC1C)C(=O)N1CCCC(N1)C(=O)OCC(C)(C)C2 as the entry.
**A:** 27.3

**Q:** Tell me its viability, T/C given CC(C)n1nc(-c2ccc3oc(N)nc3c2)c2c(N)ncnc21 + CCn1c(-c2cc(N3CCN(C)CC3)cnc2C(C)OC)c2c3cc(ccc31)-c1csc(n1)CC(NC(=O)C1CC1C)C(=O)N1CCCC(N1)C(=O)OCC(C)(C)C2 as the entry.
**A:** 21.3

**Q:** Tell me its viability, T/C given CC(Nc1ccc2c(c1)OCCn1cc(N3C(=O)OCC3C(F)F)nc1-2)C(N)=O (centres undefined) + CCn1c(-c2cc(N3CCN(C)CC3)cnc2C(C)OC)c2c3cc(ccc31)-c1csc(n1)CC(NC(=O)C1CC1C)C(=O)N1CCCC(N1)C(=O)OCC(C)(C)C2 as the entry.
**A:** 33.3

**Q:** Tell me its viability, T/C given Cc1nc(N2CCC3(CC2)COC(C)C3N)c(CO)nc1Sc1ccnc(N)c1Cl (centres undefined) + CCn1c(-c2cccnc2C(C)OC)c2c3cc(ccc31)N1CCOC(CC(NC(=O)C(C(C)C)N(C)C(=O)C3(F)CCN(C(=O)C#CC(C)(C)N(C)C)CC3)C(=O)N3CCCC(N3)C(=O)OCC(C)(C)C2)C1 as the entry.
**A:** 83.7
